Give measured pIC50 for each item. Keep answers brief.
Target: 1-deoxy-D-xylulose 5-phosphate reductoisomerase (Escherichia coli K-12, UniProt P45568)
Sequence (P45568 whole entry): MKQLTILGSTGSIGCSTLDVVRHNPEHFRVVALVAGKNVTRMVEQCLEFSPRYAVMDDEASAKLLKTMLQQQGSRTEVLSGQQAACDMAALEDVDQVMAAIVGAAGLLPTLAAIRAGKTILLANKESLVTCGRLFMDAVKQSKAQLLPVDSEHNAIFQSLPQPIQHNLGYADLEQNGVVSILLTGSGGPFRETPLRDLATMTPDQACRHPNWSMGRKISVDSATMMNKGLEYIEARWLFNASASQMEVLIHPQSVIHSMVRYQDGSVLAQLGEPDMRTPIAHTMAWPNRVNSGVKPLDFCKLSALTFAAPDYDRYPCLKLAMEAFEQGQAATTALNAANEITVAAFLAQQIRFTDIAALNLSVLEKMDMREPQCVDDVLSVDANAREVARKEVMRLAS
Assay: Inhibition of Escherichia coli M15 recombinant IspC using 1-deoxy-D-xylulose 5-phosphate as substrate by photometric analysis
Numbers only, as −log10 of the molar value.

I would be grateful if you could provide pIC50 for each of the following entries.
1. O=C(CCC(NC(=O)c1ccccc1)P(=O)(O)O)NO (stereo not drawn)
2. COc1ccc(C(CCC(=O)NO)P(=O)(O)O)cc1 (stereo not drawn)
3. COc1ccc(C(OCC(=O)N(C)O)P(=O)(O)O)cc1 (stereo not drawn)
4. COc1ccc(C(OCC(=O)NO)P(=O)(O)O)cc1 (stereo not drawn)
5. CN(O)C(=O)CCCC(c1ccccc1)P(=O)(O)O (stereo not drawn)
6. COc1ccc(C(CCC(=O)N(C)O)P(=O)(O)O)cc1 (stereo not drawn)

1. 3.13
2. 6.85
3. 6.35
4. 4.77
5. 5.37
6. 7.15

I would be grateful if you could provide pIC50 for each of the following entries.
1. Cc1ccc(C(CCC(=O)N(C)O)P(=O)(O)O)cc1 (stereo not drawn)
2. COc1ccc(C(CCC(=O)NO)P(=O)(O)O)cc1OC (stereo not drawn)
3. COc1ccc(C(CCC(=O)N(C)O)P(=O)(O)O)cc1OC (stereo not drawn)

1. 6.54
2. 5.82
3. 6.49

I would be grateful if you could provide pIC50 for each of the following entries.
1. CN(O)C(=O)CCC(NC(=O)c1ccccc1)P(=O)(O)O (stereo not drawn)
2. Cc1ccc(C(CCC(=O)NO)P(=O)(O)O)cc1 (stereo not drawn)

4.96
6.15

----------
Test: Inhibition of Plasmodium falciparum IspC using 1-deoxy-D-xylulose 5-phosphate as substrate by photometric analysis
Give measured log10 IC50 for each item. Keep answers brief.
Reminder: these figures are log10 of reported IC50, in µM before transformation.

COMPOUND: COc1ccc(C(CCC(=O)N(C)O)P(=O)(O)O)cc1 (stereo not drawn)
log10 IC50: -1.70
//
COMPOUND: COc1ccc(C(CCC(=O)NO)P(=O)(O)O)cc1 (stereo not drawn)
log10 IC50: -1.10
//
COMPOUND: CN(O)C(=O)CCC(NC(=O)c1ccccc1)P(=O)(O)O (stereo not drawn)
log10 IC50: 0.96
//
COMPOUND: Cc1ccc(C(CCC(=O)N(C)O)P(=O)(O)O)cc1 (stereo not drawn)
log10 IC50: -2.00
//
COMPOUND: CN(O)C(=O)CCCC(c1ccccc1)P(=O)(O)O (stereo not drawn)
log10 IC50: 0.32
//
COMPOUND: Cc1ccc(C(CCC(=O)NO)P(=O)(O)O)cc1 (stereo not drawn)
log10 IC50: -0.72
//
COMPOUND: COc1ccc(C(CCC(=O)NO)P(=O)(O)O)cc1OC (stereo not drawn)
log10 IC50: -0.89
//
COMPOUND: COc1ccc(C(OCC(=O)NO)P(=O)(O)O)cc1 (stereo not drawn)
log10 IC50: 0.34

I would be grateful if you could provide log10 IC50 for each of the following entries.
1. COc1ccc(C(CCC(=O)N(C)O)P(=O)(O)O)cc1OC (stereo not drawn)
2. COc1ccc(C(OCC(=O)N(C)O)P(=O)(O)O)cc1 (stereo not drawn)

1: -1.22; 2: -1.30

----------
Endpoint: pIC50. System: 1-deoxy-D-xylulose 5-phosphate reductoisomerase (Mycobacterium tuberculosis). Items follow.
Numbers only, as −log10 of the molar value.

Recorded results for 5 compounds are shown here.
COMPOUND: CN(O)C(=O)CCC(NC(=O)c1ccccc1)P(=O)(O)O (configuration not stated)
pIC50: 3.62
--
COMPOUND: COc1ccc(C(OCC(=O)NO)P(=O)(O)O)cc1 (configuration not stated)
pIC50: 3.45
--
COMPOUND: COc1ccc(C(CCC(=O)N(C)O)P(=O)(O)O)cc1OC (configuration not stated)
pIC50: 4.54
--
COMPOUND: COc1ccc(C(OCC(=O)N(C)O)P(=O)(O)O)cc1 (configuration not stated)
pIC50: 5.55
--
COMPOUND: COc1ccc(C(CCC(=O)NO)P(=O)(O)O)cc1 (configuration not stated)
pIC50: 4.82

I would be grateful if you could provide pIC50 for each of the following entries.
1. Cc1ccc(C(CCC(=O)NO)P(=O)(O)O)cc1 (configuration not stated)
2. CN(O)C(=O)CCCC(c1ccccc1)P(=O)(O)O (configuration not stated)
3. COc1ccc(C(CCC(=O)NO)P(=O)(O)O)cc1OC (configuration not stated)
4. COc1ccc(C(CCC(=O)N(C)O)P(=O)(O)O)cc1 (configuration not stated)

[4.96, 3.37, 3.79, 5.70]

----------
Test: Inhibition of Plasmodium falciparum IspC using 1-deoxy-D-xylulose 5-phosphate as substrate by photometric analysis
pIC50: −log10 of the molar value.
Give measured pIC50 for each item. Keep answers brief.

COMPOUND: O=C(CCC(NC(=O)c1ccccc1)P(=O)(O)O)NO (stereo not drawn)
pIC50: < 3.00
//
COMPOUND: O=P(O)(O)CCC(c1cccc2ccccc12)P(=O)(O)O (stereo not drawn)
pIC50: < 3.52

# input compound: O=C(CCC(c1ccccc1)P(=O)(O)O)Nc1ccccc1O (stereo not drawn) ; wanted: its pIC50
< 3.52

----------
Target: 1-deoxy-D-xylulose 5-phosphate reductoisomerase (Mycobacterium tuberculosis, UniProt P9WNS1)
Sequence (P9WNS1 whole entry): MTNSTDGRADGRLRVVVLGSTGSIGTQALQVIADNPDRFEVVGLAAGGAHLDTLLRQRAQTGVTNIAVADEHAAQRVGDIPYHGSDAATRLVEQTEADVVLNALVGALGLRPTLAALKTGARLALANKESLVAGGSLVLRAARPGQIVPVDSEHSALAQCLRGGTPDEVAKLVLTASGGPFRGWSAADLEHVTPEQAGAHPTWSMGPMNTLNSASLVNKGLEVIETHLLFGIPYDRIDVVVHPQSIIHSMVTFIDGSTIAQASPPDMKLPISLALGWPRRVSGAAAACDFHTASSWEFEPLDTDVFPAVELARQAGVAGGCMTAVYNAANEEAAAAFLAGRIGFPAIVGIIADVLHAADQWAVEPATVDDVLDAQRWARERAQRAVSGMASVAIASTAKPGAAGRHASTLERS
Give measured IC50 for each item. Keep answers brief.

COMPOUND: O=P(O)(O)CCC(c1cccc2ccccc12)P(=O)(O)O (stereo not drawn)
VALUE_OBSERVED: > 500 µM

I would be grateful if you could provide IC50 for each of the following entries.
1. O=C(CCC(c1ccccc1)P(=O)(O)O)Nc1ccccc1O (stereo not drawn)
2. O=C(CCC(NC(=O)c1ccccc1)P(=O)(O)O)NO (stereo not drawn)

1: > 500 µM; 2: > 1000 µM
